tested on: K4 kissing-loop RNA reporter; assay: apparent KD of K4 kissing-loop reporter; higher = weaker reporter binding; conditions: Eterna round: R107; input ligand: arginine 13.2 mM
property label: apparent KD of K4 kissing-loop reporter (nM)
Just the number please, in nM, no unit attached.

Below, 2 sequences whose answers are already recorded.
sequence chain: UAUUAAUAAUUAUUCUAGUGAUGUUAGAUACGAGGACCGGUACGGCCGCCACUCGCUUAUUGGUUUAUAAAUUUUAUAUUAUUUA [JR_SSTryptoA_Sub017]
scale unit: nM
apparent KD of K4 kissing-loop reporter: 207

sequence chain: CGCAGUGAUGUUGCUAUUAUUCUUGGUUAACGAGGACCGGUACGGCCGCCACUCGGUUUCUAUCUAAUCCAGUGUUUUUUUGAGU [#24 K4 Tryptophan A Exclusion]
scale unit: nM
apparent KD of K4 kissing-loop reporter: 506

Identify measured apparent KD of K4 kissing-loop reporter corresponding to CUCGAGUGAUGUUCGAUUAUUUAUACAGAUACCAGUGAAUUUUAACACCCUUGGCAGCUGGUUGUAUCUUUGUUUUUUACACAAG [JR_ExcTheophyA_Sub006]
177

----------
test system: MS2 coat protein; assay: apparent KD of MS2 coat protein; higher = weaker reporter binding; details: Eterna round: R107; input ligand: arginine 13.2 mM
I would appreciate it if you labelled entries Y when apparent KD of MS2 coat protein is 30 nM or higher, otherwise N.

sequence chain: AAGACGCCGGGAAGGAGCGCAUCCAAACCACACAUGAGGAUCACCCAUGUAUAAAUAUGCAUGCAGGUAGGUCGCCCGAUGUCCC [Orbemative]
assay target: MS2 coat protein
category label: Y

sequence chain: AGAAUAACAUGAGCAAAGCUCAUGUGCGAAGGAGCGGCGGAAACGCCAGGUAGGUCGCGCACAUGAGCAUCAGCCAUGUGUACCA [Omei Arginine B SS A v5]
assay target: MS2 coat protein
category label: N

sequence chain: UGUAUGUGAUCUGAUACCAGCUUAAUAACAUGAGCAUCAGCCAUGUGGAGCGGAAACGCUAGCCCUUGGCAGCAGAUCGCAUACU [Denovo 11 #StaticStem #AlternativeMS2]
assay target: MS2 coat protein
category label: Y

sequence chain: ACAUGAGGAUCACCCAUGUAUUACCGGGAAGGAGCGCGUGAAAACGCAGGUAGGUCGCUCGGCGUCGUGCUGUAAAGCACGACGA [#1 Same State - Arginine A Attempt #25 (HarryS)]
assay target: MS2 coat protein
category label: N

sequence chain: UGUAUGGACUGAAGGAGCGGUAGAUAACUUGAGGAUCACCCAGGUAAUAAGGCGAAAGCCUACCAGGUAGGUCGCAGUCCAUACU
assay target: MS2 coat protein
category label: Y

Hi, just wondering whether ACAUGAGGAUCACCCAUGUACAUGAGGGAAGGAGCGGUACAUGUACCAGGUAGGUCGCCCAACAGCAUCAGCCAUGUACAUCAGC [ggvmullin] shows apparent KD of MS2 coat protein of 30 nM or higher.
Y

Hi, just wondering whether ACGGAUCGGAAACGAUCCGCGGCUAGGGUGCGAGGACCGGUACGGCCGCCACUCGGGUAACAUGAGGAUCACCCAUGUCUGAUUU [ETA NP+V+V2 #14] shows apparent KD of MS2 coat protein of 30 nM or higher.
Y

Hi, just wondering whether UAAUCCGGUCCUCGAUAACAUGGGUGAAUACGAGGACCGGUACGGCCGCCACUCGAUAACAUGAGGAUCACCCAUGUAAUAAUAA [|T'-M'-Trp-Ms2|_Design15] shows apparent KD of MS2 coat protein of 30 nM or higher.
Y

----------
tested on: MS2 coat protein; assay: apparent KD of MS2 coat protein; higher = weaker reporter binding; conditions: Eterna round: R107; input ligand: arginine 13.2 mM
Known apparent KD of MS2 coat protein of a selection of sequences
Give the figure together with its unit, number first.

Below, 4 sequences whose answers are already recorded.
sequence chain: AGACAUGAGGAUCACCCAUGUAGUAUGGAUACCAGAUCCAGAUUUAUCCCUUGGCAGCUGUGGUACAGCGUUGGAUCGCUCCUAG [Exclusion - Theophylline A (Freestyle 12)]
apparent KD of MS2 coat protein: 22.3 nM
--
sequence chain: AGCGUGCAUCGGAAAACGAUGUACGCAAAUCGAGGACCGGUACGGCCGCCACUCGUCCUCAACAUGAGGAUCACCCAUGUAAUAA [Mat - Exclusion - Trytophan A - D10]
apparent KD of MS2 coat protein: 22 nM
--
sequence chain: AGUAAUAAUAUAAAUAAUAUUAGGUCAUGGCGAGGACCGGUACGGCCGCCACUCGGUUACAUGAGGAUCACCCAUGUCCCGCUUA [Exclusion - Tryptophan A]
apparent KD of MS2 coat protein: 26.6 nM
--
sequence chain: UUCGCUGAGGGAAGGAGCGUGAAGACAUGAGGAUCACCCAUGUAGAGGCGCCGAAGGCGUUCGCAGGUAGGUCGCCCUCAGUGAG [#1 Same State - Arginine B Attempt #23 (HarryS)]
apparent KD of MS2 coat protein: 17.1 nM

Turning now to a further sequence:
Identify measured apparent KD of MS2 coat protein corresponding to GUACAUGAGGAUCACCCAUGUAUAGUUGAAGGAGCGACCAGAGGGUCAGGUAGGUCGCAGCACAUGAGGUAAGCCCGUGUAUGCU [#1 Exclusion - Arginine A Attempt #19 (Inspired by Pi)]
30.7 nM

----------
test system: MS2 coat protein; experiment: apparent KD of MS2 coat protein; designed switch direction (-1 OFF switch, 1 ON switch): -1; higher = weaker reporter binding; conditions: Eterna round: R95; input ligand: FMN 200 uM
Recorded apparent KD of MS2 coat protein determines the label; the label ranges are lowest: < 20 nM; middle: ≥ 20 nM and < 50 nM; highest: ≥ 50 nM

sequence chain: GGUCGGCGAGGAUAUACAUGAGGAUCACCCAUGUGAUAGAGUGCACGCGUACGUGUACGUAGAAGGCGCUGACG [JL-ex3-3.28 salish99 mod] (puzzle: Exclusion 3)
category label: middle

Then this sequence:
Just checking, what class would you give CAUGUGUAAGGAUAUGACAAUGGUAUCGAAAGAUACCAUUGUCAGAAGGUACAUGAGGAUCACCCAUGUAGAUC [Ex4-3: 19] (puzzle: Exclusion 4) here?
highest

----------
tested on: K4 kissing-loop RNA reporter; experiment: apparent KD of K4 kissing-loop reporter; higher = weaker reporter binding; conditions: Eterna round: R107; input ligand: FMN 200 uM;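 note: bound reporter read as fluorescence of individual clusters on recovered sequencing chips by microscopy, with normalized cluster intensities fitted with a binding model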
I would appreciate it if you labelled entries rule met when apparent KD of K4 kissing-loop reporter is 400 nM or higher, otherwise rule not met.

Examples with answers:
sequence chain: UUCGAUCAGUGAUGUUGAUCAAUAGUCGAAGGAGCGCUAUAGAUAGCAGGUAGGUCGCGGCUACAGGGUGUUAAGACACCCAGAA [#13 K4 Arginine A Same State]
category label: rule met
--
sequence chain: UGUCAUUGGUCUGAUACCAGAAGAUAUUCUGGAGUGAUGUUCCAAGUACGACAAAGUCGCUUCCCUUGGCAGCAGACCGAUGACU [TheoBS 20 #SwitchBubble 13 #StaticStem]
category label: rule met
--
sequence chain: GAUUCAGUGAUGUUGGAAGGCGAGCGGGAUACCAGCCGAGACUCAGGCCCUUGGCAGCCCACAUAUCCCAGGUAGAUAGUCGCUC [Same State - Theophylline A (Freestyle 10)]
category label: rule not met
--
sequence chain: UCGAUGGCCAGCGAUACCAGCCCAGUGAUGUUGGGCACAUGGUUGCGGGAAAUCCCAUUGGGCCCUUGGCAGCGCUUGCAUGGGU [Dizaisa]
category label: rule not met

Hi, just wondering whether AUUCGCUCCACUGAUACCAGUCAUCGAGCAAGAUGCUAAGCCAGUGAUGUUGGCAUGAAUGACCCUUGGCAGCAGUACACUAAGG [Theo B SS t7] shows apparent KD of K4 kissing-loop reporter of 400 nM or higher.
rule not met

Hi, just wondering whether UUGCAAGAGUCGGCCGCCACUCCGGGCCCUAUAAAUGGGCGCAGUGAUGUUGCGGCUAGGCCUCUGAGGACCGGGACUUUGUAGC [Ateusraor] shows apparent KD of K4 kissing-loop reporter of 400 nM or higher.
rule not met

Hi, just wondering whether UGGGAUGUUAAAGGAUAUAGCAAGUGAUAUAAGAAAGUGAGUGAUGUUGAUGUAGGUGAUGAUAUGUUAGAAGGUUAACAAAACG [abcdefg] shows apparent KD of K4 kissing-loop reporter of 400 nM or higher.
rule not met

Hi, just wondering whether UGAUAGGACAGAAGGAGCGGAGCUGGUCAAAGACCAGCAAUACGUUAAAUAGGAGUGAUGUUCCAGGUAGGUCGCUGUCCUAUCU [ArgBX 28 #SwitchBubble #StaticStem] shows apparent KD of K4 kissing-loop reporter of 400 nM or higher.
rule not met

Hi, just wondering whether AGACUACUGAUAGGAUAUAACAUACUACUCGUAUACCGAAAGGUAUACGAGACCCUUCUAGUGAUGUUAGAAGGGUCGGUAGUCA [Omei KL FMN B Exc B v8] shows apparent KD of K4 kissing-loop reporter of 400 nM or higher.
rule not met

Hi, just wondering whether AGGCGCUUAAGUCAGUGAUGUUGAUUAUAUCGAGGACCGGUACGGCCGCCACUCGGCUUUCAUCCGCCAUCGUAGUCCUAAAACC [theeternabot_sameState_KL_Trp_A_25] shows apparent KD of K4 kissing-loop reporter of 400 nM or higher.
rule met

Hi, just wondering whether AAUUUAUUAACUGAUACCAGACUUAAUGAAUUGUAAAUUACUAGUGAUGUUAGUGAAUCUGUCCCUUGGCAGCAGUAUUUAUUAA [JR_ExcTheophyB_Sub010] shows apparent KD of K4 kissing-loop reporter of 400 nM or higher.
rule not met

Hi, just wondering whether AAACGCUGGUGAAUAACACUAGCGAAUUCGCGAGGACCGGUACGGCCGCCACUCGCUAACUGCGAGUGAUGUUCGAUAAUAAAAU [Mat - Mod of OpenEnded 3 - D2] shows apparent KD of K4 kissing-loop reporter of 400 nM or higher.
rule not met

Hi, just wondering whether AGAUCUAAGCUGAGUUAGUCACCAUAAAGCAAGGAUAUUCCACGAAGAAGAAGGUGCAUCAUCCAUAGUGAUGUUAUGGCACGGG [theeternabot_sameState_KL_FMN_A_7] shows apparent KD of K4 kissing-loop reporter of 400 nM or higher.
rule met

Hi, just wondering whether AAUUUAUUAUCUGAUACCAGACUUUUUCUUGUUUAUAAGUCAAGUGAUGUUUGACUUUUAGUCCCUUGGCAGCAGUAUUUUUUAA [JR_Nu_SSTheophyB_Sub026] shows apparent KD of K4 kissing-loop reporter of 400 nM or higher.
rule not met
